target: Peroxisome proliferator-activated receptor gamma/Nuclear receptor coactivator 2 (Homo sapiens); type: functional;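 further: agonist potency for raising coactivator recruitment to the receptor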
Sequence (P37231 whole entry): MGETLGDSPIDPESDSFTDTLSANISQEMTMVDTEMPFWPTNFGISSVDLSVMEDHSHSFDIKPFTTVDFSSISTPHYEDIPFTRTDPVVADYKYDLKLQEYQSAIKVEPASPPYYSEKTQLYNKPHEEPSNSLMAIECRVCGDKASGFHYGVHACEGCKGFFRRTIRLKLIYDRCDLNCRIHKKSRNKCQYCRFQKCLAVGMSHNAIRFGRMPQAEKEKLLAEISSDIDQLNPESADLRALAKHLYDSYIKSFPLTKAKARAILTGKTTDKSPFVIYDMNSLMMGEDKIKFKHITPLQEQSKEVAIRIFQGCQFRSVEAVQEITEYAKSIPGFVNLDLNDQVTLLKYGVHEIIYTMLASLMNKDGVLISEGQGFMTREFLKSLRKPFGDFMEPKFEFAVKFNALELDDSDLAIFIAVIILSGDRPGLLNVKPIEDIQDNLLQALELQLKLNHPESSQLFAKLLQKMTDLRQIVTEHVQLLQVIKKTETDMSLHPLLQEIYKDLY
Sequence (Q15596 whole entry, further chain): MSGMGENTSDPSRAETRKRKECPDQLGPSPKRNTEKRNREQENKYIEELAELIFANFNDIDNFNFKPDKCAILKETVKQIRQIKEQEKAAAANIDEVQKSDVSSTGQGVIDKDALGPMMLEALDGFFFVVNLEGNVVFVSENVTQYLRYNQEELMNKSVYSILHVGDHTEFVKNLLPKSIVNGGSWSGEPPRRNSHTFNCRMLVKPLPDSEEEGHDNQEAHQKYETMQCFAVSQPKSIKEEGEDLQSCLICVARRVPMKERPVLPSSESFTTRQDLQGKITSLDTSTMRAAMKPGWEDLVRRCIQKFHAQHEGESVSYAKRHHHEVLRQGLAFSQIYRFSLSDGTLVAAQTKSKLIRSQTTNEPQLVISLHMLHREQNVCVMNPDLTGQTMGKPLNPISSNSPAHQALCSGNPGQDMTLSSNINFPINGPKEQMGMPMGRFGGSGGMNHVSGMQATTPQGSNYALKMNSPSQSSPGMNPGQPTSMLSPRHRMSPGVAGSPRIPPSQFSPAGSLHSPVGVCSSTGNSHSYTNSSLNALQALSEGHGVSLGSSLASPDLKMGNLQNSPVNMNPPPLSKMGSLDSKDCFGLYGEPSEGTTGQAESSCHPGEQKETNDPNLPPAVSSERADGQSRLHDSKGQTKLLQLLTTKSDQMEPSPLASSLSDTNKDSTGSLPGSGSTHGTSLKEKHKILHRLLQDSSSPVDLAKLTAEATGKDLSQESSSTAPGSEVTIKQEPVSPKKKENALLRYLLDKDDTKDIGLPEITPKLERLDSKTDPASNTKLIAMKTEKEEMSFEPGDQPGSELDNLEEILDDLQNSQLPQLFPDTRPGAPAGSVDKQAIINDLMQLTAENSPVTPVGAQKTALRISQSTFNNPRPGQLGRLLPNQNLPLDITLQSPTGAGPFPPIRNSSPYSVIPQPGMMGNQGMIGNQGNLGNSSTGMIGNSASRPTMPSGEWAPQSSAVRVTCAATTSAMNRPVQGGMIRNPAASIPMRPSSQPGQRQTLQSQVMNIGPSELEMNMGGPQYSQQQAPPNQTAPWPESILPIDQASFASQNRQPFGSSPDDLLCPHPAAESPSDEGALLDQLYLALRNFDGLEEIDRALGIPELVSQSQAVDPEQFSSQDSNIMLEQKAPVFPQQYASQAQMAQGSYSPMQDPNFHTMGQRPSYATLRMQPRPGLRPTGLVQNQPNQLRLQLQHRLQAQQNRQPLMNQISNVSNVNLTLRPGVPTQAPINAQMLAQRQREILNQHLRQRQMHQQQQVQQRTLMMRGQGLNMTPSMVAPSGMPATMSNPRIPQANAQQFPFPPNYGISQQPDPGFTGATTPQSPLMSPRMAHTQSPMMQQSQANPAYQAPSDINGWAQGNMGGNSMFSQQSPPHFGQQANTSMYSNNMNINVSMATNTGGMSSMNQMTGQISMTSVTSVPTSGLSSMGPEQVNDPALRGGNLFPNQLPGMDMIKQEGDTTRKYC
Active and inactive are the calls of the source.
Measured EC50 of individual entries

// below: answered molecules
CC(C)(C)c1cc(C(=S)N2CCN(CCO)CC2)cc(C(C)(C)C)c1O = > 79.4 µM (not active)
Cc1nn(-c2ccc(Cl)cc2)c2sc(C(=O)c3c(N)n(C)c(=O)n(C)c3=O)cc12 = 18 µM (not active)
COc1ccc(-c2c(C#N)c(C)nc3c2C(=O)c2ccccc2-3)cc1 = 32.6 µM (not active)
CCOC(=O)Cn1/c(=N/C(=O)c2sc3ccccc3c2Cl)sc2cc(S(N)(=O)=O)ccc21 = 7.96 µM (active)
N#Cc1c(N)nc(SCC(=O)NC2CCCCC2)c(C#N)c1-c1ccc(Cl)cc1 = 21.9 µM (not active)

Please examine the following record next.
Task: State its EC50 for this molecule: Cc1ccc(CNC(=O)COc2ccc(C(=O)c3ccc(F)cc3)cc2)cc1
Result: > 79.4 µM (not active)

---

Reported values of EC50 for individual entries
biological target: Luciferin 4-monooxygenase (Photinus pyralis); assay: inhibition of purified Photinus pyralis luciferase – biochemical, luminescence, dose response (AID 1891)
Sequence (P08659 whole entry): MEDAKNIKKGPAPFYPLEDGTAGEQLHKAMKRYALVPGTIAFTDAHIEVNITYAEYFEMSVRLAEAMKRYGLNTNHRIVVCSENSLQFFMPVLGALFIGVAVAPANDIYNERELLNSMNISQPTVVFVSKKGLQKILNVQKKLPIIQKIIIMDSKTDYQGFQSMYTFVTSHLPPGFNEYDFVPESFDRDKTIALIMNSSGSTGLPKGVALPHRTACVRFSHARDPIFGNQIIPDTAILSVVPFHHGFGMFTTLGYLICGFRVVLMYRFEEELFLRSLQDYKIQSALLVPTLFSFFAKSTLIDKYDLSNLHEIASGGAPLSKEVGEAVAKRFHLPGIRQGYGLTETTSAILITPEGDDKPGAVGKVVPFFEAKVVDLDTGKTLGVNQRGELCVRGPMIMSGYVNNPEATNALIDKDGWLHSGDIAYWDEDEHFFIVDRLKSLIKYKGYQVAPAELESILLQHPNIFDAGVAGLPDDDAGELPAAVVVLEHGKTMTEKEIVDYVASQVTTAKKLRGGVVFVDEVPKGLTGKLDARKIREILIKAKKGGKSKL
Calls of active or inactive are those of the source.

Example compounds with recorded EC50:
CSc1nc(N)n2nc(-c3ccccc3)cc2n1 = 3.8 µM (active)
CCOC(=O)c1[nH]c2ccc(OC)cc2c1N=C(S)N1CCN(C(=O)OCC)CC1 = > 112 µM (not active)
COc1ccc(/C=N/Nc2nccnc2Cl)cc1 = 3.76 µM (active)
S=C(c1ccc2c(c1)OCO2)N1CCCCC1 = > 112 µM (not active)

Task: Input CC(=O)c1ccc(-c2nc3c4ccccc4ccn3c2C(C)=O)o1 , output reported EC50.
Result: > 112 µM (not active)

Task: Give EC50 for the following compound: O=C(O)c1ccc(/C=N\Nc2ccccn2)cc1
Result: 3.56 µM (active)

Task: // Input: CNC(=O)c1cc(S(=O)(=O)N(C)C)ccc1Cl . Output its EC50 only.
Result: > 112 µM (not active)

Task: Complete the entry with EC50 for CCOC(=O)c1sc(NC(=O)CC(C)c2ccccc2)nc1C (stereo unspecified)
Result: > 112 µM (not active)

Task: Identify measured EC50 corresponding to COc1ccc(N(C(=O)c2ccc(F)cc2)C2=CC3CCC(C2)N3C)cc1 (stereo unspecified)
Result: > 112 µM (not active)

Task: Give the measured EC50 for COc1ccc(NC(=O)c2ccccn2)cc1
Result: 9.53 µM (active)

---

target: Dual specificity tyrosine-phosphorylation-regulated kinase 1A (Rattus norvegicus); format: biochemical, Homo sapiens
The source made the active and inactive calls.
Listed below: AC50 values for each entry.

Clc1ccc2[nH]c(COc3ccccc3)nc2c1 = 6230 nM (active)
CCCC[n+]1ccc(-c2nc3cc([N+](=O)[O-])ccc3[nH]2)cc1 = 2240 nM (active)
O=C(Nc1nc(-c2ccncc2)cs1)c1ccco1 = 1920 nM (active)
O=C(Nc1cccc(-c2nc3cccnc3s2)c1)c1cccnc1Cl = 651 nM (active)
c1cnc2ccc(-c3ccc4ncccc4c3)cc2c1 = 189 nM (active)

Task: Indicate its recorded AC50; the compound in question is O=C1c2ccccc2-c2onc3ccc(N4CCCC4)c1c23
Result: 1670 nM (active)

Task: Provide AC50 value for the following compound: Clc1c(Cl)c(Cl)c2[nH]nnc2c1Cl
Result: 5990 nM (active)

Task: In one line, give reported AC50 of the entry C=CCOc1ccc(/C=C2\SC(Nc3cccnc3)=NC2=O)cc1 .
Result: 2930 nM (active)
